Reference source for all entries: patent US11479529B2

# measurement-notes: Cytotoxicity assay, A549
# Type: cell-based, human
# stated-conditions: human, A549 lung carcinoma cells
Give CC50 for every item shown.
Answers are plain numbers, in µM.

Could you tell me which CC50 is on file for O=c1[nH]cc(F)c(=O)[nH]1 [5-fluorouracil, reference compound] ?
0.00562

Further cases:
Could you tell me which CC50 is on file for `C#Cc1cccc(/N=C/c2cc([N+](=O)[O-])ccc2O)c1` ?
183

====

# assay-system: NusB-NusE interaction (Bacillus subtilis, UniProt P54520)
# Construct: 6xHis (N)
# measurement-notes: ELISA-based inhibitory assay of NusB-NusE heterodimer formation
# stated-conditions: NusB coated plate, GST-tagged NusE probe; read-out: IC50, inhibition of the NusB-NusE interaction
pIC50: −log10 of the molar value.
If the reported pIC50 equals or exceeds 4, assign y. If not, assign n.

Please indicate if the recorded pIC50 for O=[N+]([O-])c1ccc(O)c(C=Nc2ccccc2)c1 [MC4-4, 4-nitro-2-[(phenylimino)methyl]phenol] meets or exceeds 4.
n

// next record `O=[N+]([O-])c1cccc(/C=N/c2ccccc2)c1O`
y

// next record `O=[N+]([O-])c1ccc(O)c(/C=N/c2ccc(Cl)cc2)c1`
n

// next record `O=[N+]([O-])c1ccc(O)c(/C=N/c2cccc(O)c2)c1`
y

// next record `Cc1cccc(/N=C/c2cc([N+](=O)[O-])ccc2O)c1`
n

Turning to the following molecule.
Please indicate if the recorded pIC50 for `O=[N+]([O-])c1ccc(O)c(/C=N/c2ccc(O)cc2)c1` meets or exceeds 4.
y

====

# measurement-notes: Cytotoxicity assay, HaCaT
# Format: cell-based
# stated-conditions: HaCaT immortalized human keratinocytes
measured-parameter: CC50 (µM)
Give bare numbers, in µM.

Could you tell me which CC50 is on file for `C#Cc1cccc(/N=C/c2cc([N+](=O)[O-])ccc2O)c1` ?
695

====

# assay-system: B. subtilis NusB wild type protein (Bacillus subtilis, UniProt P54520)
# Construct: 6xHis (N)
# Sequence (P54520 whole entry): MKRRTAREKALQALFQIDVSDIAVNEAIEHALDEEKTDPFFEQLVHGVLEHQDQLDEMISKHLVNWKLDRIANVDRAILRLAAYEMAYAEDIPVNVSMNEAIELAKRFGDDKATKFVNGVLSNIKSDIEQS
# measurement-notes: Isothermal titration calorimetry, NusB wild type
# stated-conditions: ITC, one-site binding mode
measured-parameter: Kd (µM)
Answers are plain numbers, in µM.

Could you tell me which Kd is on file for `C#Cc1cccc(/N=C/c2cc([N+](=O)[O-])ccc2O)c1` ?
1.45
